Items are presented alongside their recorded pIC50.
Tested on: PAF-induced platelet aggregation
Experiment: In vitro PAF antagonism assay (inhibition of PAF-induced platelet aggregation in platelet-rich plasma)
Format: cell-based
Conditions: human PRP, PAF 1-5×10^-8 M
pIC50: −log10 of the molar value.

Completed entries (count: 3):
compound: CC(=O)N1CC[C@H]2[C@H](Cc3cc(Cl)cc4c3[C@@H]2c2ncccc2CC4)C1 (relative stereo) [Compound 14A]
tested system: PAF-induced platelet aggregation
pIC50: ~2.52
//
compound: CN1CC[C@H]2[C@@H](Cc3cc(Cl)cc4c3[C@@H]2c2ncccc2CC4)C1 (relative stereo)
tested system: PAF-induced platelet aggregation
pIC50: ~4.42
//
compound: CN1CC[C@H]2C(=Cc3cc(Cl)cc4c3[C@@H]2c2ncccc2CC4)C1 (relative stereo)
tested system: PAF-induced platelet aggregation
pIC50: ~5.26

Form field: reported pIC50 of O=C(c1cc[n+]([O-])cc1)N1CC[C@H]2[C@@H](Cc3cc(Cl)cc4c3[C@@H]2c2ncccc2CC4)C1 (relative stereo)
~5.55

Okay, and CC(=O)N1CC[C@H]2[C@@H](Cc3cc(Cl)cc4c3[C@@H]2c2ncccc2CC4)C1 (relative stereo) [Compound 14B] ?
~3.52
